Target: NTRK2 (human) (UniProt Q16620)
Sequence (Q16620 whole entry, looked up): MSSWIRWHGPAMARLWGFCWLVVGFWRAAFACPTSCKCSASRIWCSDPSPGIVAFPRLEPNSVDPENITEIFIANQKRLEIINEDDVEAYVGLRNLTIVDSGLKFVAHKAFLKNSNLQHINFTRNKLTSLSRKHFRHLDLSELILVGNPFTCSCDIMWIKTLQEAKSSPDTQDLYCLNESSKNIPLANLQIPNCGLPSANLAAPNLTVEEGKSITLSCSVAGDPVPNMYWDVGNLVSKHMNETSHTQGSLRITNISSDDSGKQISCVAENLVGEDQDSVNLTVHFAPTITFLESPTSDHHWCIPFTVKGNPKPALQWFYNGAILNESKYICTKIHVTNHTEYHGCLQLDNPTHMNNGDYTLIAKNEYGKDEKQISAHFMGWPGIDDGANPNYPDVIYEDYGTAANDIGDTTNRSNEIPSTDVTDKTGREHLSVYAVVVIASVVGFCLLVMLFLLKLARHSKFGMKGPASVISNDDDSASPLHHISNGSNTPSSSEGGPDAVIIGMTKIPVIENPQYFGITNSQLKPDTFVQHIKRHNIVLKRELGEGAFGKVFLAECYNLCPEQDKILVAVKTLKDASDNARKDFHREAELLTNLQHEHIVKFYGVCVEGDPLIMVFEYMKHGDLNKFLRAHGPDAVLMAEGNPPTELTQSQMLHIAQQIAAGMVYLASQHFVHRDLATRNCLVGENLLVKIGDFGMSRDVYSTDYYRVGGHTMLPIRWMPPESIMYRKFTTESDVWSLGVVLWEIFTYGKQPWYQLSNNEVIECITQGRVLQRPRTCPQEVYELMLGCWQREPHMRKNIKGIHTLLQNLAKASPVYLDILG
Experiment: radiometric filter-binding kinase assay, Kinase HotSpot
Conditions: compound 0.5 µM; ATP 10 µM
Would you kindly list residual activity for each of these molecules?
Record the value in %, omitting the unit from your answer.

Req: I have this molecule here, `Nc1cccc(-c2cc3c(Oc4cccc(O)c4)ncnc3[nH]2)c1` , and I need its recorded residual activity.
Resp: 95.5

Req: Sample `Nc1ncnc2[nH]nc(Nc3ccc(F)cc3)c12` — what was its residual activity?
Resp: 101

Req: # residual activity lookup, item `CCCC(=O)Oc1ccc2[nH]c(C(=O)c3cc4ccccc4[nH]3)cc2c1`
Resp: 89.8

Req: Look up residual activity: `CCN(CC)CCNC(=O)c1c(C)[nH]c(/C=C2\C(=O)Nc3ccc(F)cc32)c1C`
Resp: 9.78

---

Target: CAMK4 (human) (UniProt Q16566)
Sequence (Q16566 whole entry, looked up): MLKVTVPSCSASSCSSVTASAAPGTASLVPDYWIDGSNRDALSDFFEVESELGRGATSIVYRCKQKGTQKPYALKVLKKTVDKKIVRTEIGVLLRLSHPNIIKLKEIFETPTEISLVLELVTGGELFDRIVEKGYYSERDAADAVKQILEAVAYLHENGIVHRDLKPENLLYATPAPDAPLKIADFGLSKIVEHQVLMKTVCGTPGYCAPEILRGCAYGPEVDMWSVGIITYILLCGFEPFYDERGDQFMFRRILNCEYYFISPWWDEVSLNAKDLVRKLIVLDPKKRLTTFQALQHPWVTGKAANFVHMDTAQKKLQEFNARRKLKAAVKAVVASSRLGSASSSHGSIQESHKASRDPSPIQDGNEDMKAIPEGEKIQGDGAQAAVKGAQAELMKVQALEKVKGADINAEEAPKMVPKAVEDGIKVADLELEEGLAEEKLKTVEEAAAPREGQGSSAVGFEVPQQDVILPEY
Test: radiometric filter-binding kinase assay, Kinase HotSpot
Details: compound 0.5 µM; ATP 10 µM
resultType: residual activity (%)
Express the result in % but write the number alone.

Req: Data request, read-out residual activity, for `Nc1ncnc2[nH]nc(Nc3ccc(F)cc3)c12`
Resp: 103

Req: What value of residual activity has been reported for the following compound? `O=C1NC(=O)/C(=C/c2ccc3c(c2)OC(F)(F)O3)S1`
Resp: 101

Req: // returns reported residual activity for input `O=S(=O)(c1cccc2cnccc12)N1CCCNCC1`
Resp: 92.9

Req: // lookup residual activity for `COc1cc2ncnc(Nc3cccc(Cl)c3)c2cc1OC`
Resp: 94.4

Req: // query residual activity value for entry `COc1ccc(COc2ccc(Cc3cnc(N)nc3N)cc2OC)cc1`
Resp: 94.7

Req: Which residual activity is reported for this compound? `CCOC(=O)c1c(C)[nH]c(/C=C2\C(=O)Nc3ccccc32)c1C`
Resp: 97.7

Req: Would you mind telling me what residual activity value was observed for `CC#CC(=O)Nc1cc2c(Nc3ccc(F)c(Cl)c3)ncnc2cn1` ?
Resp: 97.4

Req: Tell me the measured residual activity of `Nc1cccc(-c2cc3c(Oc4cccc(O)c4)ncnc3[nH]2)c1` , please.
Resp: 94.9

Req: # query: residual activity of entry `Cc1ccc(NC2=CC(=O)c3sc(C)nc3C2=O)cc1`
Resp: 98.5

Req: Which residual activity value is on record for `Cc1ccc(S(=O)(=O)/C=C/C#N)cc1` ?
Resp: 96.4

Req: Quick one: residual activity for `CNc1cc2c(Nc3cccc(Br)c3)ncnc2cn1` ?
Resp: 104

Req: Please report the recorded residual activity for `CC(C)N(CCC(=O)c1ccc2ccccc2c1)Cc1ccccc1` .
Resp: 98.3

Req: Name the recorded residual activity for `O=C1NC(=O)c2c1c1c3ccccc3n3c1c1c2c2ccccc2n1C1CCC3O1` .
Resp: 98.7

Req: What value of residual activity has been reported for the following compound? `c1ccc(-c2n[nH]cc2-c2ccnc3ccccc23)nc1`
Resp: 97.5

Req: May I ask what residual activity has been recorded for `O=C1Nc2ccc(Cl)cc2/C1=C/c1cc(Cl)c(O)c(Cl)c1` ?
Resp: 96.8

Req: // residual activity lookup, key: `Oc1cccc(-c2nc(N3CCOCC3)c3oc4ncccc4c3n2)c1`
Resp: 103

Req: Data request, read-out residual activity, for `CCCC(=O)Oc1ccc2[nH]c(C(=O)c3cc4ccccc4[nH]3)cc2c1`
Resp: 111

Req: Which residual activity value belongs to `CCC(=O)Nc1ccc2ncnc(Nc3cccc(Br)c3)c2c1` ?
Resp: 103
